# assayedTarget: T1, Lsm2-8 Lsm2-K20E (Saccharomyces cerevisiae, UniProt P38203;P57743;P40070;P40089;Q06406;P53905;P47093 …, K20E)
# T1 sequence 1: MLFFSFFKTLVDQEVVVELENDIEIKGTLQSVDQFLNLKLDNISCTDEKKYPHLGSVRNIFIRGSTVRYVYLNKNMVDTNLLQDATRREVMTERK
# T1 sequence 2: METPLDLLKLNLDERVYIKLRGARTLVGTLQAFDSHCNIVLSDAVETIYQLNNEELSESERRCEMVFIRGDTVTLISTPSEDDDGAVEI
# T1 sequence 3: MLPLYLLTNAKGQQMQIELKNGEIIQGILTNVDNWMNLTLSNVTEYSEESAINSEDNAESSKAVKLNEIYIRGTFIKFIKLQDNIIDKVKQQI
# T1 sequence 4: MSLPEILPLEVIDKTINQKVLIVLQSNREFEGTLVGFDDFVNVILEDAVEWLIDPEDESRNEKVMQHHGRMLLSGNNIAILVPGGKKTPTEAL
# T1 sequence 5: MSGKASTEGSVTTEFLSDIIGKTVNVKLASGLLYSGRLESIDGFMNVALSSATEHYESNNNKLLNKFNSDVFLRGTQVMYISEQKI
# T1 sequence 6: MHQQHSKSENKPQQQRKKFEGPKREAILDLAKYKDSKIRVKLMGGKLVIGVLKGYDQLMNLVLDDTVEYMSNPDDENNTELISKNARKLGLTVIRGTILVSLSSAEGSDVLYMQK
# T1 sequence 7: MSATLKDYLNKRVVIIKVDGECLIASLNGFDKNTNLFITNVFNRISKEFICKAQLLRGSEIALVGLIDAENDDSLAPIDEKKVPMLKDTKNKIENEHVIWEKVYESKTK
# testDescription: fluorescence polarization; FP: 50 mM KCl or as listed 100 mM KCl in both 2x buffers, HEPES (10 mM acid + 10 mM Na salt), 10% glycerol, 1 mM TCEP, tRNA, heparin, BSA, 0.3 nM FAM-RNA; EMSA: 100 mM KCl, 20% sucrose, 20 mM bis-tris/10 mM HCl pH ~6.5, 1 mM EDTA, 1 mM TCEP, 0.01% Triton X-100, tRNA, heparin, BSA, room temperature, gel at 4 C
# conditions: protein: recombinant; tags: as P1; copies: 1;1;1;1;1;1;1; label: 5'-FAM; single strand
pKd: −log10 of the molar value.
Reported pKd values for the following binders.
measuredEndpoint: pKd

[[record]]
binder = "UUUCGUUUUU (ssRNA, 3' phosphate) [U6 104-113 3' phosphate]"
measuredendpoint = "pKd"
recordednumber = 5.63

[[record]]
binder = "UUUCGUUUUU (ssRNA, none (3' phosphate removed with CIP)) [U6 104-113 2',3'-cis diol]"
measuredendpoint = "pKd"
recordednumber = 5.73

